TESTED_ON: Bromodomain-containing protein 4 (Homo sapiens)
ASSAY_EXPLANATION: In Vitro Enzyme Inhibition Assay
pIC50: −log10 of the molar value.
The following compounds are shown together with reported pIC50 values.

Worked cases, answers included:
CCCCc1cnc(NS(O)(O)CC)nc1-c1cc(C)c(=O)n(C)c1; > 6.30
CCS(O)(O)c1ccc(NCC2CC2)c(-c2cn(C)c(=O)c3cc(F)ccc23)c1; > 6.30
CCS(O)(O)c1ccc(OCC2CC2)c(-c2cn(C)c(=O)c3ccccc23)c1; > 6.30

Prompt: GET /values?readout=pIC50&item= CCS(O)(O)c1ccc(OCC2CC2)c(-c2cc(NC)c(=O)n(C)c2)c1
Response: > 6.30

Prompt: What does the data say about its pIC50? Entry: CCS(O)(O)c1cccc(-c2cn(C)c(=O)c3cncn23)c1
Response: < 5.30
